measurement-kind: melting point

Please review the entries below; each comes with its answer.
>  <molecule>
CC(=O)C1CCN(CCOc2ccn(-c3ccc(Cl)cc3Cl)n2)CC1.O=C(O)C(=O)O (hydrate or solvate)

>  <melting point>
137 to 140 °C

$$$$
>  <molecule>
Cc1cc(OCCN2CCC(n3cnc4cccnc43)CC2)nn1-c1ccc(Cl)c(Cl)c1

>  <melting point>
104 to 107 °C

$$$$
>  <molecule>
CC(=O)N1CCN(CCOc2ccn(-c3ccc(Cl)cc3Cl)n2)CC1.O=C(O)C(=O)O

>  <melting point>
156 to 158 °C

$$$$
>  <molecule>
CC(=O)N1CCN(CCOc2nn(-c3ccc(Cl)c(Cl)c3)c(C)c2C)CC1.O=C(O)C(=O)O (hydrate or solvate)

>  <melting point>
180 to 184 °C

$$$$
>  <molecule>
CC(=O)N1CCN(CCCCOc2cc(C)n(-c3ccc(Cl)c(Cl)c3)n2)CC1

>  <melting point>
147 to 150 °C

$$$$
>  <molecule>
CC(=O)C1CCN(CCOc2ccn(-c3ccc(Cl)cc3)n2)CC1.O=C(O)C(=O)O

>  <melting point>
150 to 153 °C

$$$$

Record melting point per entry; entries follow.
1. CC(=O)C1CCN(CCOc2ccn(-c3ccc(Cl)c(Cl)c3)n2)CC1.O=C(O)C(=O)O
2. CC(=O)N1CCN(CCOc2ccn(-c3ccc(Cl)c(Cl)c3)n2)CC1.O=C(O)C(=O)O
3. CC(=O)N1CCN(CCCCOc2nn(-c3ccc(Cl)c(Cl)c3)c(C)c2C)CC1.O=C(O)C(=O)O
4. CC(=O)C1CCN(CCOc2cc(C)n(-c3ccc(Cl)c(Cl)c3)n2)CC1.O=C(O)C(=O)O

Response:
1. 98 to 100 °C
2. 206 to 210 °C
3. 186 to 188 °C
4. 158 to 165 °C
